List of NanoBRET Fold Response values.
target: HTR1D (Homo sapiens); construct: purchased Promega (in-house HiBiT-GPCR construct library, NanoBRET); test: NanoBRET screen HiBiT-HTR1D in HEK293; type: binding; conditions: HTR1D; tracer 0.1μM
Sequence (P28221 whole entry): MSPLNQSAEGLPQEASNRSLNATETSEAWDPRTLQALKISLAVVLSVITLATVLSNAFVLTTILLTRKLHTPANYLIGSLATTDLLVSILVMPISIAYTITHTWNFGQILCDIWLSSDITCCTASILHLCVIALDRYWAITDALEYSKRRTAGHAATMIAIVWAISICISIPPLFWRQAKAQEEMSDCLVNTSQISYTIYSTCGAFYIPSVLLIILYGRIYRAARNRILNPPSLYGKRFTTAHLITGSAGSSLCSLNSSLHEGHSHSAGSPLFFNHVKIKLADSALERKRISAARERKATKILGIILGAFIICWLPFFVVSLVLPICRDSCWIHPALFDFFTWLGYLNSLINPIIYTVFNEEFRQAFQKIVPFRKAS
quantityName: NanoBRET Fold Response

- compound: "CCCn1c(=O)c2[nH]c(-c3ccc(OCC(=O)NCCNC(=O)CCOCCNC(=O)c4ccc(CNC(=O)CCc5ccc6n5[B-](F)(F)[N+]5=C(c7ccc[nH]7)C=CC5=C6)cc4)cc3)nc2n(CCC)c1=O"
  numericResult: 0.47
- compound: "CC(C)N(CC[C@H](c1ccccc1)c1cc(CCNC(=O)CCOCCOCCOCCOCCNC(=O)CCc2ccc3n2[B-](F)(F)[N+]2=C(c4ccc[nH]4)C=CC2=C3)ccc1O)C(C)C"
  numericResult: 1.35
- compound: "Cc1nc2n(c(=O)c1CCN1CCC(c3noc4cc(F)ccc34)CC1)CCCC2OC(=O)NCCOCCOCCOCCOCCNC(=O)CCc1ccc2n1[B-](F)(F)[N+]1=C(c3ccc[nH]3)C=CC1=C2 (centres unmarked)"
  numericResult: 1.38
- compound: "CC(C)N(CC[C@H](c1ccccc1)c1cc(CCNC(=O)c2ccc(CNC(=O)CCc3ccc4n3[B-](F)(F)[N+]3=C(c5ccc[nH]5)C=CC3=C4)cc2)ccc1O)C(C)C"
  numericResult: 1.27
- compound: "N#CN=C(NCCCOc1cccc(CN2CCCCC2)c1)NCCNC(=O)CCOCCOCCOCCOCCNC(=O)CCc1ccc2n1[B-](F)(F)[N+]1=C(c3ccc[nH]3)C=CC1=C2"
  numericResult: 1.40

###

Target: GALR1 (Homo sapiens)
Construct: purchased Promega (in-house HiBiT-GPCR construct library, NanoBRET)
Sequence (P47211 1-349): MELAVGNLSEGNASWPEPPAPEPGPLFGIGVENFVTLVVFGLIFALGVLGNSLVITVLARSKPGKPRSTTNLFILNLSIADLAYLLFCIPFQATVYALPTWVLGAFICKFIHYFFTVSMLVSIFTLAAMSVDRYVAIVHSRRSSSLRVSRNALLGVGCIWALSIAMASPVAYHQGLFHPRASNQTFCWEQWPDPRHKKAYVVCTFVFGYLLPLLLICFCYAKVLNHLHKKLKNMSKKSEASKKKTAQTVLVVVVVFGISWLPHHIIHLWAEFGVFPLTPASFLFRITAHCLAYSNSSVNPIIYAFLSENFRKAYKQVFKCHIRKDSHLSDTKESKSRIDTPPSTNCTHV
Assay: NanoBRET screen HiBiT-GALR1 in HEK293
Assay type: binding
Details: GALR1; tracer 0.1μM
quantityName: NanoBRET Fold Response

- molecule: "O=C(CCc1ccc2n1[B-](F)(F)[N+]1=C(c3ccc[nH]3)C=CC1=C2)NCCOCCOCCNC(=O)OCCOCCN1CCN(C2=Nc3ccccc3Sc3ccccc32)CC1"
  measuredOn: "GALR1 (Homo sapiens)"
  result: 1.02
- molecule: "O=C(CCc1ccc2n1[B-](F)(F)[N+]1=C(c3ccc[nH]3)C=CC1=C2)NCc1ccc(C(=O)NCCOCCC(=O)N[C@@H]2CC[C@@]3(O)[C@H]4Cc5ccc(O)c6c5[C@@]3(CCN4CC3CC3)[C@H]2O6)cc1 [Naltrexone-3-NB590]"
  measuredOn: "GALR1 (Homo sapiens)"
  result: 0.99
- molecule: "COc1ccccc1N1CCN(CCCCN2C(=O)c3ccc(CNC(=O)CCOCCNC(=O)c4ccc(CNC(=O)CCc5ccc6n5[B-](F)(F)[N+]5=C(c7ccc[nH]7)C=CC5=C6)cc4)cc3C2=O)CC1"
  measuredOn: "GALR1 (Homo sapiens)"
  result: 1.09
- molecule: "Cc1cc2c(s1)Nc1ccccc1N=C2N1CCN(CCCNC(=O)CCOCCOCCOCCOCCNC(=O)CCc2ccc3n2[B-](F)(F)[N+]2=C(c4ccc[nH]4)C=CC2=C3)CC1"
  measuredOn: "GALR1 (Homo sapiens)"
  result: 1.03
- molecule: "N#CN=C(NCCCOc1cccc(CN2CCCCC2)c1)NCCNC(=O)CCOCCOCCOCCOCCNC(=O)CCc1ccc2n1[B-](F)(F)[N+]1=C(c3ccc[nH]3)C=CC1=C2"
  measuredOn: "GALR1 (Homo sapiens)"
  result: 1.02

###

target: SSTR4 (Homo sapiens); construct: purchased Promega (in-house HiBiT-GPCR construct library, NanoBRET); assay: NanoBRET screen HiBiT-SSTR4 in HEK293; format: binding; conditions: SSTR4; tracer 0.1μM
Sequence (P31391 whole entry): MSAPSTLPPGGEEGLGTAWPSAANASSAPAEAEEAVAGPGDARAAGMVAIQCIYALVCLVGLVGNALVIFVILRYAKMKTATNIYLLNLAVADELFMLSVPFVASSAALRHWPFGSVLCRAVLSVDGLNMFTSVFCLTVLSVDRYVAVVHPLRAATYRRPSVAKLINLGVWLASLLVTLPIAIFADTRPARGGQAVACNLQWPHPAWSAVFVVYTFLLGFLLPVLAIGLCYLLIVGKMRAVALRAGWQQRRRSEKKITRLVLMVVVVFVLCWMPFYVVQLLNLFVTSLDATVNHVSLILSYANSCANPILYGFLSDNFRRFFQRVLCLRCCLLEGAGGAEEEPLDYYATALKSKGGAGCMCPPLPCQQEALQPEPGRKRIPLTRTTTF
Note to self: use rule met only for NanoBRET Fold Response readings below 1; a reading exactly at 1 still gets rule not met.

- compound: "COc1ccccc1N1CCN(CCCCN2C(=O)c3ccc(CNC(=O)CCOCCNC(=O)c4ccc(CNC(=O)CCc5ccc6n5[B-](F)(F)[N+]5=C(c7ccc[nH]7)C=CC5=C6)cc4)cc3C2=O)CC1 [NAN-190-3-NB590]"
  measuredOn: "SSTR4 (Homo sapiens)"
  classification: "rule met"
- compound: "N#CN=C(NCCCOc1cccc(CN2CCCCC2)c1)NCCNC(=O)CCOCCOCCOCCOCCNC(=O)CCc1ccc2n1[B-](F)(F)[N+]1=C(c3ccc[nH]3)C=CC1=C2 [Aminopotentidine-2-NB590]"
  measuredOn: "SSTR4 (Homo sapiens)"
  classification: "rule not met"

###

List of NanoBRET Fold Response values.
Biological target: ADORA2A (Homo sapiens, UniProt P29274)
Construct: purchased Promega (in-house HiBiT-GPCR construct library, NanoBRET)
Sequence (P29274 whole entry): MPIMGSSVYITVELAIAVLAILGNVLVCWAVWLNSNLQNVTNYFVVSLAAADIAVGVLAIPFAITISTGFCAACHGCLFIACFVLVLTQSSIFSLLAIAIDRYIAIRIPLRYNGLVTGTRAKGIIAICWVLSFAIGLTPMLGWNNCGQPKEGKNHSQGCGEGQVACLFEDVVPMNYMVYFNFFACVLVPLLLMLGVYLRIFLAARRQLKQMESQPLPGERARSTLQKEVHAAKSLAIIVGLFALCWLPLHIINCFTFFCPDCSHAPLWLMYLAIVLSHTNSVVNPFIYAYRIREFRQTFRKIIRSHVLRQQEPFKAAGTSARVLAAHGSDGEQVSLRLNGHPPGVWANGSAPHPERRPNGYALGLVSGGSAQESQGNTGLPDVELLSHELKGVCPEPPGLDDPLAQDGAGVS
Experiment: NanoBRET screen HiBiT-ADORA2A in HEK293
Assay type: binding
Settings: ADORA2A; tracer 0.1μM
Description: Each tracer candidate was screened across the entire library of HiBiT-GPCR constructs using NanoBRET as the detection modality. As depicted in Figure 4A, the specificity of interactions was evaluated through decrease in BRET due to competitive displacement of a bound tracer by excess parental compound. Each tracer was analyzed for binding to each HiBiT-GPCR fusion in the absence and in the presence of competing parental compound. […]
quantityName: NanoBRET Fold Response

- compound: "Cc1nc2n(c(=O)c1CCN1CCC(c3noc4cc(F)ccc34)CC1)CCCC2OC(=O)NCCOCCOCCOCCOCCNC(=O)CCc1ccc2n1[B-](F)(F)[N+]1=C(c3ccc[nH]3)C=CC1=C2 (stereo not drawn) [Risperidone-2-NB590]"
  numericResult: 0.98
- compound: "COc1ccccc1N1CCN(CCCCN2C(=O)c3ccc(CNC(=O)CCOCCNC(=O)c4ccc(CNC(=O)CCc5ccc6n5[B-](F)(F)[N+]5=C(c7ccc[nH]7)C=CC5=C6)cc4)cc3C2=O)CC1 [NAN-190-3-NB590]"
  numericResult: 1.00
- compound: "Cc1cc2c(s1)Nc1ccccc1N=C2N1CCN(CCCNC(=O)CCOCCOCCOCCOCCNC(=O)CCc2ccc3n2[B-](F)(F)[N+]2=C(c4ccc[nH]4)C=CC2=C3)CC1 [Olanzapine-a-2-NB590]"
  numericResult: 0.97
- compound: "COc1ccccc1N1CCN(CCCCN2C(=O)c3ccc(CNC(=O)CCOCCOCCOCCOCCNC(=O)CCc4ccc5n4[B-](F)(F)[N+]4=C(c6ccc[nH]6)C=CC4=C5)cc3C2=O)CC1 [NAN-190-2-NB590]"
  numericResult: 1.02
- compound: "O=C(CCc1ccc2n1[B-](F)(F)[N+]1=C(c3ccc[nH]3)C=CC1=C2)NCCOCCOCCNC(=O)OCCOCCN1CCN(C2=Nc3ccccc3Sc3ccccc32)CC1 [Quetiapine-a-2-NB590]"
  numericResult: 0.99
- compound: "CC(C)N(CC[C@H](c1ccccc1)c1cc(CCNC(=O)c2ccc(CNC(=O)CCc3ccc4n3[B-](F)(F)[N+]3=C(c5ccc[nH]5)C=CC3=C4)cc2)ccc1O)C(C)C [Tolterodine-BZ-NB590]"
  numericResult: 1.00

###

List of NanoBRET Fold Response values.
biological target: AVPR2 (Homo sapiens); construct: purchased Promega (in-house HiBiT-GPCR construct library, NanoBRET); assay: NanoBRET screen HiBiT-AVPR2 in HEK293; type: binding; settings: AVPR2; tracer 0.1μM
Sequence (P30518 whole entry): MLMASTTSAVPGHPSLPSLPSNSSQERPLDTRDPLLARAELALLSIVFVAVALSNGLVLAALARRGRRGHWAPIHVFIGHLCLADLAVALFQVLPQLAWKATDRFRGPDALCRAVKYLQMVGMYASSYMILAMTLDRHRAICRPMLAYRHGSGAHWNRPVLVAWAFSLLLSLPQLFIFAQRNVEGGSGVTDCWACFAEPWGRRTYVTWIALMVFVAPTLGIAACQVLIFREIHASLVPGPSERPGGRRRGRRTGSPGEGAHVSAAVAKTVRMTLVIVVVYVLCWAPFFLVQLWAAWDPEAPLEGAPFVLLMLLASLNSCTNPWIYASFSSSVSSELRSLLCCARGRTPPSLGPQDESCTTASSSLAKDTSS
quantityName: NanoBRET Fold Response

- molecule: "Cc1nc2n(c(=O)c1CCN1CCC(c3noc4cc(F)ccc34)CC1)CCCC2OC(=O)NCCOCCOCCOCCOCCNC(=O)CCc1ccc2n1[B-](F)(F)[N+]1=C(c3ccc[nH]3)C=CC1=C2 (centres unmarked)"
  result: 1.04
- molecule: "CC(C)N(CC[C@H](c1ccccc1)c1cc(CCNC(=O)CCOCCOCCOCCOCCNC(=O)CCc2ccc3n2[B-](F)(F)[N+]2=C(c4ccc[nH]4)C=CC2=C3)ccc1O)C(C)C"
  result: 1.06
- molecule: "COc1ccccc1N1CCN(CCCCN2C(=O)c3ccc(CNC(=O)CCOCCOCCOCCOCCNC(=O)CCc4ccc5n4[B-](F)(F)[N+]4=C(c6ccc[nH]6)C=CC4=C5)cc3C2=O)CC1"
  result: 1.00
- molecule: "CCCn1c(=O)c2[nH]c(-c3ccc(OCC(=O)NCCNC(=O)CCOCCNC(=O)c4ccc(CNC(=O)CCc5ccc6n5[B-](F)(F)[N+]5=C(c7ccc[nH]7)C=CC5=C6)cc4)cc3)nc2n(CCC)c1=O"
  result: 0.73
- molecule: "Cc1cc2c(s1)Nc1ccccc1N=C2N1CCN(CCCNC(=O)CCOCCOCCOCCOCCNC(=O)CCc2ccc3n2[B-](F)(F)[N+]2=C(c4ccc[nH]4)C=CC2=C3)CC1"
  result: 0.98
